Test system: S. cerevisiae AD1-9 (efflux-pump deficient), vegetative growth in YPD
run_description: growth sensitivity score (doubling time z-score vs DMSO controls); higher = slower growth, strongly negative scores also mark growth inhibition (complete suppression), active = hit call of the paper
measurement_context: stock concentration (mM, diluted 1:100): 10
Answer with one of the outcomes true (1) for active, false (0) for inactive

>>> class_label("O=C(O)C(Cl)Cl")
"false (0)"

Each compound tested received a call. Report the one for `O=C1CN=C(c2ccccc2)c2cc([N+](=O)[O-])ccc2N1` .
true (1)

Each compound tested received a call. Report the one for `Oc1ccc2c3c1O[C@H]1[C@@H](O)CC[C@@]4(O)[C@@H](C2)N(CC2CCC2)CC[C@]314` .
false (0)

Each compound tested received a call. Report the one for `C[C@]12CCC(=O)C=C1CC[C@@H]1[C@@H]2CC[C@@]2(C)[C@H]1CC[C@]2(C)O` .
true (1)

Each compound tested received a call. Report the one for `Oc1cc2c(cc1O)[C@H]1c3ccccc3CN[C@@H]1CC2` .
false (0)

* * *

System: S. cerevisiae AD1-9 (efflux-pump deficient), vegetative growth in YPD
run_description: growth sensitivity score (doubling time z-score vs DMSO controls); higher = slower growth, strongly negative scores also mark growth inhibition (complete suppression), active = hit call of the paper
measurement_context: stock concentration (mM, diluted 1:100): 10.1
Where a name gives a salt, the structure may show the parent alone.
property_name: growth sensitivity score

Solved cases below.
>>> observed("CC(NC(C)(C)C)C(=O)c1cccc(Cl)c1 (stereo not given) [Amfebutamone hydrochloride]")
"0.01 (inactive)"
>>> observed("C=C(C)CN1CC[C@]23c4c5ccc(O)c4O[C@H]2c2[nH]c4ccccc4c2C[C@@]3(O)C1C5")
"11.1 (active)"

Briefly, growth sensitivity score measured for C[N+]1(CCC(C(N)=O)(c2ccccc2)c2ccccc2)CCCCC1 [Fenpiverinium bromide] : -1.25 (inactive)

Briefly, growth sensitivity score measured for NC(=O)OCCCc1ccccc1 [Phenprobamate] : -0.54 (inactive)

Briefly, growth sensitivity score measured for `CC[C@@H](C(N)=O)N1CCCC1=O` : -2.51

* * *

Tested on: S. cerevisiae NKY1551 his4x/his4B, sporulating;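 also: active if sensitivity score above 5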
run_description: HIS4 meiotic recombination assay sensitivity score (z-score vs DMSO controls); higher = stronger inhibition of sporulation/recombination, active = hit call of the paper
measurement_context: stock concentration (mM, diluted 1:100): 10.1
Counter-ions that a name gives are not always drawn.
Listing of recorded HIS4 meiotic recombination assay sensitivity score by entry.
# output: bare number, no unit

Solved cases below.
>>> observed("C[C@]12CCC(=O)C[C@@H]1CC[C@@H]1[C@@H]2CC[C@@]2(C)[C@H]1CC[C@]2(C)O")
-0.62
>>> observed("C=C(C)CN1CC[C@]23c4c5ccc(O)c4O[C@H]2c2[nH]c4ccccc4c2C[C@@]3(O)C1C5")
3.9
>>> observed("C[C@]12CC[C@H](O)CC1=CC[C@@H]1[C@@H]2CC[C@@]2(C)[C@H]1CC[C@]2(C)O")
-1.02

Briefly, HIS4 meiotic recombination assay sensitivity score measured for CC(NC(C)(C)C)C(=O)c1cccc(Cl)c1 (configuration not stated) [Amfebutamone hydrochloride] : -0.33

Briefly, HIS4 meiotic recombination assay sensitivity score measured for C[N+]1(CCC(C(N)=O)(c2ccccc2)c2ccccc2)CCCCC1 [Fenpiverinium bromide] : -1.06

Briefly, HIS4 meiotic recombination assay sensitivity score measured for NC(=O)OCCCc1ccccc1 [Phenprobamate] : 0.5

Briefly, HIS4 meiotic recombination assay sensitivity score measured for `CC[C@@H](C(N)=O)N1CCCC1=O` : -0.77

All values here come from the supplement of paper PMC3414501.
